Tested on: Escherichia coli TOP10;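 also: peptides expressed intracellularly from a pBAD plasmid library in pooled LB shake-flask culture, induced with 0.3% L-arabinose, DNA abundance read by NGS, three biological replicates, DESeq2 with apeglm shrinkage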
experiment: shrunken log2 fold change of peptide-encoding DNA abundance (4.5 h post-induction vs induction); higher = less antimicrobial activity (less host growth inhibition)
condition.set: time post-induction: 4.5 h; library: site-saturation at positions 5, 18, 19, 20
assay.endpoint: shrunken log2 fold change

Write down shrunken log2 fold change measured for item RRIRKRPPRLPRPRPRPTWAPRP 0.0687

Write down shrunken log2 fold change measured for item RRIRKRPPRLPRPRPRPTKLPRP 0.246

Write down shrunken log2 fold change measured for item RRIRARPPRLPRPRPRPGYCPRP -0.012

Write down shrunken log2 fold change measured for item RRIRYRPPRLPRPRPRPYSCPRP -0.344

Write down shrunken log2 fold change measured for item RRIRSRPPRLPRPRPRPREGPRP 2.98

Write down shrunken log2 fold change measured for item RRIRDRPPRLPRPRPRPNTVPRP -0.364

Write down shrunken log2 fold change measured for item RRIRTRPPRLPRPRPRPTNEPRP -0.261

Write down shrunken log2 fold change measured for item RRIRPRPPRLPRPRPRPAYWPRP 0.212

Write down shrunken log2 fold change measured for item RRIRERPPRLPRPRPRPRTRPRP 0.12

Write down shrunken log2 fold change measured for item RRIRWRPPRLPRPRPRPQYYPRP -0.0952

Write down shrunken log2 fold change measured for item RRIRVRPPRLPRPRPRPSLFPRP -0.269

Write down shrunken log2 fold change measured for item RRIRTRPPRLPRPRPRPQFVPRP -0.127

Write down shrunken log2 fold change measured for item RRIRYRPPRLPRPRPRPNWYPRP -1.48

Write down shrunken log2 fold change measured for item RRIRFRPPRLPRPRPRPMWWPRP 0.0551

Write down shrunken log2 fold change measured for item RRIRNRPPRLPRPRPRPEIRPRP 0.126
